# Tested on: HEK293
# protocol_details: Cytotoxic Profiling of Annotated Libraries Using Quantitative High-Throughput Screening (AID 1296008); note: nearly all actives have a fitted effect of over 60% in size
# conditions_used: Five cell lines viability, CellTiter-Glo ATP luminescence, 48-72 h
Records with an inconclusive call do not appear. The source made the active and inactive calls. Calls come from the whole dose curve; as a rule, active = well fitted inhibition curve with a large enough effect; inconclusive = small, poorly fitted or top-dose-only effect; inactive = flat fitted curve, though single readings scatter.
Bench note: report the call from True for active, False for inactive

Q) Please indicate how the test categorized NC(=O)c1c(OCc2c(F)cc(Br)cc2F)nsc1NC(=O)NCCCCN1CCCC1 .
A) True

Q) Please indicate how the test categorized Cc1ccc2nc(NC(=O)CSc3nc4c(c(=O)n3-c3ccccc3)SCC4)sc2c1 .
A) False

Q) Please indicate how the test categorized O=C(Nc1ncc(-c2cc(C(F)F)nn2-c2c(Cl)cccc2Cl)s1)C1CC1 .
A) True

Q) Please indicate how the test categorized CC(NCc1ccc2c(c1)nc(NC(=O)c1ccc(-c3cn[nH]c3)s1)n2CC(C)(C)O)C(C)(C)C (stereo not given) .
A) True

Q) Please indicate how the test categorized Cc1coc2c1C(=O)C(=O)c1c-2ccc2c1CCCC2(C)C .
A) True
